Tested on: cancer cells on SISgel or plastic
assay-overview: Activity of leads and analogs on cancer cells grown on plastic vs SISgel (cell line not stated)
Type: cell-based
assay-context: ratio IC50-p/IC50-S
// reported SR for each item listed
quantity: SR

CC(=O)Nc1cc(S(=O)(=O)[O-])cc2cc(S(=O)(=O)[O-])c(N=Nc3ccccc3)c(O)c12.[Na+].[Na+]: 2.6
O=S(=O)([O-])c1cc(S(=O)(=O)[O-])c2c(N=Nc3ccc(S(=O)(=O)[O-])c4ccccc34)c(O)c(S(=O)(=O)[O-])cc2c1.[Na+].[Na+].[Na+].[Na+]: 1.2
Cc1cc(C)c(S(=O)(=O)[O-])cc1N=Nc1cc(S(=O)(=O)[O-])c2ccccc2c1O.[Na+].[Na+]: 3.8
O=[N+]([O-])c1ccc(N=Nc2c(S(=O)(=O)[O-])cc3cc(S(=O)(=O)[O-])cc(O)c3c2O)cc1.[Na+].[Na+] [Chromotrope 2B]: 1.8
Nc1c(N=Nc2cccc([N+](=O)[O-])c2)c(S(=O)(=O)[O-])cc2cc(S(=O)(=O)[O-])c(N=Nc3ccccc3)c(O)c12.[Na+].[Na+]: 1.7
Cc1cc(-c2ccc(/N=N/c3c(S(=O)(=O)O)cc4cc(S(=O)(=O)O)cc(N)c4c3O)c(C)c2)ccc1/N=N/c1c(S(=O)(=O)O)cc2cc(S(=O)(=O)O)cc(N)c2c1O: 4.5
O=S(=O)([O-])c1cc(S(=O)(=O)[O-])c2c(N=Nc3ccc(N=Nc4ccccc4)cc3)c(O)ccc2c1.[Na+].[Na+]: 1.8
O=S(=O)([O-])c1ccc(N=Nc2c(O)ccc3ccccc23)cc1.[Na+]: 0.29
CCN(Cc1cccc(S(=O)(=O)[O-])c1)c1ccc(C(=C2C=CC(=[N+](CC)Cc3cccc(S(=O)(=O)[O-])c3)C=C2)c2ccccc2)cc1.[Na+]: 0.74
Cc1cc(C)c(N=Nc2c(O)c(S(=O)(=O)[O-])cc3cc(S(=O)(=O)[O-])ccc23)cc1C.[Na+].[Na+]: 1.3
O=S(=O)(O)c1cc(Cl)cc(N=Nc2c(S(=O)(=O)O)cc3cc(S(=O)(=O)O)c(N=Nc4cc(Cl)cc(S(=O)(=O)O)c4O)c(O)c3c2O)c1O: 2.0
O=S(=O)([O-])c1cc(S(=O)(=O)[O-])c2c(N=Nc3ccc(S(=O)(=O)[O-])c4ccccc34)c(O)ccc2c1.[Na+].[Na+].[Na+]: 1.6

* * *

Test system: cancer cells on SISgel or plastic
assay-overview: Activity of leads and analogs on cancer cells grown on plastic vs SISgel (cell line not stated)
Assay type: cell-based
assay-context: cells on plastic; read-out: IC50-p
Experimental: The NCI library is no longer available in the form used here, but how it was constructed is described (http://dtp.nci.nih.gov/branches/dscb/diversity_explanation.html). […] Efficacy in vitro was assessed by plating 30,000 cells in 50 μL of high glucose DMEM with penicillin-streptomycin and 10 % fetal calf serum on SISgel in a 96-well plate containing 50 μL of gelled SISgel per well. […] Data were analyzed using nonlinear regression to a sigmoid curve with Prism 4 (GraphPad Software, Inc., LaJolla, CA). […]
quantity: IC50 (µM)

O=S(=O)(O)c1cc(Cl)cc(N=Nc2c(S(=O)(=O)O)cc3cc(S(=O)(=O)O)c(N=Nc4cc(Cl)cc(S(=O)(=O)O)c4O)c(O)c3c2O)c1O: 46
CCN(Cc1cccc(S(=O)(=O)[O-])c1)c1ccc(C(=C2C=CC(=[N+](C)C)C=C2)c2ccc(N(CC)Cc3cccc(S(=O)(=O)O)c3)cc2)cc1.[Na]: 64
COc1ccccc1N=Nc1c(S(=O)(=O)[O-])cc2cc(S(=O)(=O)[O-])cc(NC(C)=O)c2c1O.[Na+].[Na+]: 53
CCN(Cc1cccc(S(=O)(=O)[O-])c1)c1ccc(C(=C2C=CC(=[N+](CC)Cc3cccc(S(=O)(=O)[O-])c3)C=C2)c2ccccc2Cl)cc1.[Na+]: 414
O=S(=O)([O-])c1ccc2c(N=Nc3c(O)cc(S(=O)(=O)[O-])c4ccccc34)c(O)c(S(=O)(=O)[O-])cc2c1.[Na+].[Na+].[Na+] [HydroxyNapthol Blue]: 135
O=[N+]([O-])c1ccc(N=Nc2c(S(=O)(=O)[O-])cc3cc(S(=O)(=O)[O-])cc(O)c3c2O)cc1.[Na+].[Na+] [Chromotrope 2B]: 71
Nc1cc(S(=O)(=O)[O-])cc2cc(S(=O)(=O)[O-])c(N=Nc3cc([N+](=O)[O-])ccc3O)c(O)c12.[Na+].[Na+]: 74
O=S(=O)([O-])c1cc(Cl)cc(N=Nc2ccc3c(S(=O)(=O)[O-])cccc3c2O)c1O.[Na+].[Na+]: 323
CCN(CC)c1ccc(C(=C2C=CC(=[N+](CC)CC)C=C2)c2ccc(S(=O)(=O)[O-])cc2S(=O)(=O)[O-])cc1.[Na+]: 318
Cc1ccc(N=Nc2c(O)c(S(=O)(=O)[O-])cc3cc(S(=O)(=O)[O-])ccc23)c(C)c1.[Na+].[Na+] [Acid Red 26]: 154
O=[N+]([O-])c1ccc(N=Nc2c(S(=O)(=O)[O-])cc3cc(S(=O)(=O)[O-])cc(O)c3c2O)cc1.[Na+].[Na+] [Acid Red 60 Chromotrope 2B]: 26
O=S(=O)([O-])c1cc(S(=O)(=O)[O-])c2c(N=Nc3ccc(N=Nc4ccccc4)cc3)c(O)ccc2c1.[Na+].[Na+]: 82
Cc1cc(-c2ccc(/N=N/c3c(S(=O)(=O)O)cc4cc(S(=O)(=O)O)cc(N)c4c3O)c(C)c2)ccc1/N=N/c1c(S(=O)(=O)O)cc2cc(S(=O)(=O)O)cc(N)c2c1O: 159
CC(=O)Nc1cc(S(=O)(=O)[O-])cc2cc(S(=O)(=O)[O-])c(N=Nc3ccccc3)c(O)c12.[Na+].[Na+]: 33
Cc1ccc(N=Nc2c(O)c(S(=O)(=O)[O-])cc3cc(S(=O)(=O)[O-])ccc23)c(C)c1.[Na+].[Na+] [Ponceau Xylidine]: 38
O=S(=O)([O-])c1cc(S(=O)(=O)[O-])c2c(N=Nc3ccc(S(=O)(=O)[O-])c4ccccc34)c(O)ccc2c1.[Na+].[Na+].[Na+]: 43
O=S(=O)(O)c1ccc2c(N=Nc3c(O)c(S(=O)(=O)O)cc4cc(S(=O)(=O)O)ccc34)c(O)c(S(=O)(=O)O)cc2c1 [2-2-dihydroxy-1-1-azo-naphthalene-3-3-6]: 213
O=S(=O)([O-])c1cc(Nc2nc(Cl)nc(Cl)n2)c2c(O)c(N=Nc3ccccc3)c(S(=O)(=O)[O-])cc2c1.[Na+].[Na+]: 77
Cc1ccc(NC(=O)c2cc3ccccc3c(N=Nc3cc(S(=O)(=O)[O-])ccc3O)c2O)c(C)c1.[Na+]: 106
Nc1c(N=Nc2cccc([N+](=O)[O-])c2)c(S(=O)(=O)[O-])cc2cc(S(=O)(=O)[O-])c(N=Nc3ccccc3)c(O)c12.[Na+].[Na+]: 212
O=S(=O)(O)c1cc2cc(S(=O)(=O)O)c(N=Nc3ccccc3[As](=O)(O)O)c(O)c2c(O)c1N=Nc1ccccc1[As](=O)(O)O: 47
O=S(=O)([O-])c1ccc2c(N=Nc3cccc4ccccc34)c(O)c(S(=O)(=O)[O-])cc2c1.[Na+].[Na+]: 87
CC(=O)Nc1ccc(N=Nc2c(N)ccc3cc(S(=O)(=O)O)cc(O)c23)c(S(=O)(=O)O)c1.N.N: 85
